Molecular target: TRβ (Homo sapiens)
Construct: expressed in transfected cells; host or cells: HEK293
Sequence (P10828 217-461 limits assumed): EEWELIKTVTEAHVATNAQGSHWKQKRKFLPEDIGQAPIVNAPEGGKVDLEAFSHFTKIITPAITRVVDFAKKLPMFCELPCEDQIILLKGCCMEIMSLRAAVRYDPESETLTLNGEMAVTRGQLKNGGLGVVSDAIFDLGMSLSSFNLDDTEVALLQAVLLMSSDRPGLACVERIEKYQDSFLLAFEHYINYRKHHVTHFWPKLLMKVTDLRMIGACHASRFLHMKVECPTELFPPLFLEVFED
Assay: Thyroid-hormone reporter-gene assay (TRβ-Gal4 hybrid, luciferase, HEK293)
Assay type: cell-based
Details: calculated as EC50 (TRα)/EC50 (TRβ); Table 2
MEASURED PROPERTY: T3-SI (selectivity index)

Before answering, review these 9 worked examples.
COMPOUND	T3-SI (selectivity index)
Cc1cc(OCC(=O)O)c(F)c(C)c1Cc1ccc(O)c(C(C)C)c1F [Compound 93]	+++ (T3-SI>30×)
C=C(C)c1c(F)c(OCC(=O)O)cc(Cl)c1Cc1ccc(O)c(C(C)C)c1F [Compound 121]	++ (3×<T3-SI≤30×)
Cc1cc(OCC(=O)O)cc(C)c1Cc1ccc(O)c(C(C)c2ccc(F)cc2)c1F (stereo not shown) [Compound 6]	++ (3×<T3-SI≤30×)
CC(c1ccc(F)cc1)c1c(O)ccc(Cc2c(Cl)cc(OCC(=O)O)cc2Cl)c1F (stereo not shown) [Compound 30]	++ (3×<T3-SI≤30×)
O=C(O)COc1cc(Cl)c(Cc2ccc(O)c(-c3cc(OC(F)F)ccc3F)c2F)c(Cl)c1F [Compound 101]	++ (3×<T3-SI≤30×)
CC(C)c1c(O)ccc(Cc2c(Cl)cc(OCC(=O)O)c(F)c2C(C)C)c1F [Compound 123]	++ (3×<T3-SI≤30×)
CCc1cc(OCC(=O)O)c(F)c(Cl)c1Cc1ccc(O)c(C(C)C)c1 [Compound 77]	++ (3×<T3-SI≤30×)
C=C(C)c1cc(OCC(=O)O)c(F)c(Cl)c1Cc1ccc(O)c(C(C)C)c1 [Compound 79]	+++ (T3-SI>30×)
Cc1cc(OCC(=O)O)cc(C)c1Cc1ccc(O)c(C(C)C)c1F [Compound 2]	++ (3×<T3-SI≤30×)

Okay, now this compound:
Query string: With TRβ (Homo sapiens) as the test system, provide measured T3-SI (selectivity index) for this compound: CC(c1ccc(F)cc1)c1c(O)ccc(Cc2c(Cl)cc(OCC(=O)O)c(F)c2Cl)c1F (stereo not shown) [Compound 107]
Result string: ++ (3×<T3-SI≤30×)
